// pIC50 lookup, one value per entry
tested on: MG-63 osteosarcoma cells; assay: MTT assay on osteosarcoma cells; assay type: cell-based; details: Homo sapiens, 48 hours, read-out: Inhibitory activity (IC50) MG-63
FYI, pIC50 means -log10 of a concentration in mol per litre.

Task item: Please report pIC50 for the following molecule: `CCN1CCN(c2ccc(Nc3ncc(C)c(Nc4ccc5cn[nH]c5c4)n3)cc2OC)CC1`
Reply: 6.36

Task item: Please report pIC50 for the following molecule: `COc1cc(Nc2ncc(C)c(Nc3ccc4cn[nH]c4c3)n2)ccc1N1CCN(C)CC1`
Reply: 6.08

---

system: MNNG/HOS osteosarcoma cells; assay: MTT assay on osteosarcoma cells; format: cell-based; conditions: 48 hours, read-out: Inhibitory activity (IC50) MNNG/HOS
assay_metric: pIC50
FYI, pIC50 means -log10 of a concentration in mol per litre.

Recorded results for 2 compounds are shown here.
[
  {
    "compound": "CCN1CCN(c2ccc(Nc3ncc(C)c(Nc4ccc5cn[nH]c5c4)n3)cc2OC)CC1 [Compound 6i]",
    "tgt": "MNNG/HOS osteosarcoma cells",
    "pIC50": 5.99
  },
  {
    "compound": "COc1cc(Nc2ncc(C)c(Nc3ccc4cn[nH]c4c3)n2)ccc1N1CCN(C)CC1 [Compound 6f]",
    "tgt": "MNNG/HOS osteosarcoma cells",
    "pIC50": 5.87
  }
]

Task item: Please report pIC50 for the following compound: Cc1ccc(Nc2nccc(N(C)c3ccc4c(C)n(C)nc4c3)n2)cc1S(N)(=O)=O [Pazopanib, reference compound]
Reply: 5.07
